# METHOD_SUMMARY: solubility of the compound (I) in normal solvents
# Assay type: physicochemical
# ASSAY_CONDITIONS: ethanol, organic solvent or mixture; read-out: solubility in ethanol
READOUT_KIND: solubility

input: Give a short answer stating reported solubility for CC(C)(C)C(=O)Oc1ccc(S(=O)(=O)Nc2ccccc2C(=O)NCC(=O)[O-])cc1.[Na+] [compound (I)] .
output: < 6000 µg/mL

# credit: patent US6552082B2
